Target: U1A Asp92Phe (UniProt P09012 1-101, D92F)
Sequence (P09012 1-101 D92F): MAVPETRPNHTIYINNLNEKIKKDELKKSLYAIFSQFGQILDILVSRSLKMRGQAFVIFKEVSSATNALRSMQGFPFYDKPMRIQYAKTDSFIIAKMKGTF
Assay: SPR; ka 6e7 M-1s-1; kd 1.0e-3 s-1; Biacore 2000 SPR; running buffer with 125 ug/ml yeast tRNA and 62.5 ug/ml acetylated BSA; buffer, salt, pH and temperature as previously described (not given in material)
Conditions: protein: recombinant; tags: N-terminal His6; label: 5' biotin; hairpin
reported-metric: pKd
Answers are plain numbers, as −log10 of the molar value.

Q: Provide pKd value for the following binder: AGCUUAUCCAUUGCACUCCGGAUGAGCU (structured_RNA) [U1hpII]
Ans: 10.70
